# IC50 annotations
tested on: HTT mRNA; assay: Splicing assay (RT-qPCR) of HTT mRNA alternative junction (AJ) and canonical junction (CJ); assay type: cell-based; conditions: decrease in CJ mRNA; A673 or K562 cells, 24 hours; read-out: HTT CJ IC50
METRIC: IC50

[[record]]
compound = "Cn1cc2cc(-c3ccc4nc(N5CCC(NC(C)(C)C)C5)ccc4n3)c(O)cc2n1 (centres unmarked)"
result = "< 0.1 µM"

[[record]]
compound = "COc1cc2nc(C)sc2cc1-c1ccc2nc(N3CCC(NC(C)(C)C)C3)ccc2n1 (centres unmarked)"
result = "1 to 10 µM"

[[record]]
compound = "Cn1cc2cc(-c3ccc4nc(N5CCC56CCCNC6)ccc4n3)c(O)cc2n1 (centres unmarked)"
result = "> 10 µM"

[[record]]
compound = "Cc1c(O)c(-c2ccc3nc(N4CC[C@H](NC5CC5)C4)ccc3n2)cc2cn(C)nc12 (single isomer, unassigned)"
result = "< 0.1 µM"

[[record]]
compound = "Cc1nc2cc(O)c(-c3ccc4nc(C5CCNCC5)ccc4n3)cc2s1"
result = "1 to 10 µM"

[[record]]
compound = "Cc1nc2cc(O)c(-c3ccc4nc(N5CC[C@H](NC6CC6)C5)ccc4n3)cc2o1 (single isomer, unassigned)"
result = "< 0.1 µM"

[[record]]
compound = "O=C(NCc1ccn[nH]1)Nc1cc2nc(N3CCNCC3)ccc2cn1"
result = "> 10 µM"

[[record]]
compound = "CC(C)(C)NC1CCN(c2ccc3nc(-c4cc5cnccc5cc4O)ccc3n2)C1 (centres unmarked)"
result = "> 10 µM"

